EXPERIMENTAL_TARGET: Human Constitutive (Hu C-20S) β5 Active Subunit (Homo sapiens, UniProt P28074)
TEST: IC50 determination, human constitutive 20S proteasome β5c (suc-LLVY-AMC hydrolysis)
Type: biochemical
CONDITION_CONTEXT: Table 3; IC50 against human constitutive β5 active subunit; read-out: Hu-C20S β5
ASSAY_READOUT: pIC50
Answers are plain numbers, as −log10 of the molar value.

The following compounds each have a reported value; give each one's pIC50.
1. Cc1cc(C(=O)N[C@@H](CC(=O)N2CCCC[C@@H]2C)C(=O)N[C@@H](C)c2ncc(-c3ccccc3)[nH]2)no1
2. CC[C@H]1CCCCN1C(=O)C[C@H](NC(=O)[C@H]1C[C@@H]1c1ccccc1)C(=O)N[C@@H](C)c1nc2c(F)cccc2[nH]1
3. CC(C)CCS(=O)(=O)N[C@@H](CC(=O)N1CCC[C@@H]1c1ccccc1)C(=O)N[C@H](C)c1nc2ccccc2[nH]1
4. C[C@H](NC(=O)[C@H](CC(=O)N1CCCC[C@@H]1C)NC(=O)CCC(C)(C)C)c1ncc(-c2ccc(F)cc2F)[nH]1
5. CC(C)CCS(=O)(=O)N[C@@H](CC(=O)N1CCC[C@@H]1c1ccccc1)C(=O)N[C@@H](C)c1nc2ccccc2[nH]1
6. CC[C@H]1CCCCN1C(=O)C[C@H](NS(=O)(=O)CCC(C)C)C(=O)N[C@@H](C)c1nc2c(F)cccc2[nH]1
7. CC[C@H]1CCCCN1C(=O)C[C@H](NC(=O)CCC(C)C)C(=O)N[C@@H](C)c1nc2ccccc2[nH]1

**A:**
[5.02, 5.09, 4.97, 5.07, 5.00, 4.75, 4.83]

----------
I'd appreciate it if you could supply IC50 values for the items below.
EXPERIMENTAL_TARGET: Human Constitutive (Hu C-20S) β5 Active Subunit (Homo sapiens)
TEST: IC50 determination, human constitutive 20S proteasome β5c (suc-LLVY-AMC hydrolysis)
Type: biochemical
CONDITION_CONTEXT: Table 3; IC50 against human constitutive β5 active subunit; read-out: Hu-C20S β5
Answers are plain numbers, in µM.

Here is how some compounds turned out for IC50.
[
  {
    "MOLECULE": "C[C@H](NC(=O)[C@H](CC(=O)N1CCCC[C@@H]1C)NC(=O)C1CC(C)(C)C1)c1nc2c(F)cccc2[nH]1",
    "IC50 [µM]": 7.6
  },
  {
    "MOLECULE": "CC[C@H]1CCCCN1C(=O)C[C@H](NC(=O)C1CC2(CCC2)C1)C(=O)N[C@@H](C)c1nc2c(F)cccc2[nH]1",
    "IC50 [µM]": 13.4
  },
  {
    "MOLECULE": "CC(C)CCC(=O)N[C@@H](CC(=O)N1CCOC[C@@H]1C)C(=O)N[C@@H](C)c1ncc(-c2ccc(F)cc2F)[nH]1",
    "IC50 [µM]": 15.2
  },
  {
    "MOLECULE": "CC(C)CCC(=O)N[C@@H](CC(=O)N1CCC[C@@H]1c1ccccc1)C(=O)N[C@@H](C)c1nc2ccccc2[nH]1",
    "IC50 [µM]": 50
  },
  {
    "MOLECULE": "Cc1cc(C(=O)N[C@@H](CC(=O)N2CCC[C@@H]2c2ccccc2)C(=O)N[C@@H](C)c2nc3ccccc3[nH]2)no1",
    "IC50 [µM]": 9.7
  }
]

Attention now shifts to the item below.
**Q:** Which IC50 is listed for C[C@H](NC(=O)[C@H](CC(=O)N1CCC[C@@H]1c1ccccc1)Nc1nc2ccccc2o1)c1ncc(-c2ccccc2F)[nH]1 ?
**A:** 20.6
